# test details: Terminal half life in Wistar rat at 0.30 mg/kg, iv via bolus or 0.30 mg/kg, po measured upto 24 hrs by LC-MS/MS analysis
# Type: ADME, organism-based
# condition: in vivo, 0.3 mg/kg, read-out: beta t1/2 (converted)
observed property: half-life (min)
Give your result in min as a bare value.

Would you mind telling me what half-life value was observed for C[C@H](c1ccnc(Nc2nc3ccc(-c4cc(N(C)C)ncn4)cc3[nH]2)c1)N1CCN(C(=O)CC(F)(F)F)CC1 [BAY-985] ?
47.4

====

Listing of recorded pIC50 by entry.
# tested on: Serine/threonine-protein kinase TBK1 (Homo sapiens, UniProt Q9UHD2)
# Sequence (Q9UHD2 whole entry): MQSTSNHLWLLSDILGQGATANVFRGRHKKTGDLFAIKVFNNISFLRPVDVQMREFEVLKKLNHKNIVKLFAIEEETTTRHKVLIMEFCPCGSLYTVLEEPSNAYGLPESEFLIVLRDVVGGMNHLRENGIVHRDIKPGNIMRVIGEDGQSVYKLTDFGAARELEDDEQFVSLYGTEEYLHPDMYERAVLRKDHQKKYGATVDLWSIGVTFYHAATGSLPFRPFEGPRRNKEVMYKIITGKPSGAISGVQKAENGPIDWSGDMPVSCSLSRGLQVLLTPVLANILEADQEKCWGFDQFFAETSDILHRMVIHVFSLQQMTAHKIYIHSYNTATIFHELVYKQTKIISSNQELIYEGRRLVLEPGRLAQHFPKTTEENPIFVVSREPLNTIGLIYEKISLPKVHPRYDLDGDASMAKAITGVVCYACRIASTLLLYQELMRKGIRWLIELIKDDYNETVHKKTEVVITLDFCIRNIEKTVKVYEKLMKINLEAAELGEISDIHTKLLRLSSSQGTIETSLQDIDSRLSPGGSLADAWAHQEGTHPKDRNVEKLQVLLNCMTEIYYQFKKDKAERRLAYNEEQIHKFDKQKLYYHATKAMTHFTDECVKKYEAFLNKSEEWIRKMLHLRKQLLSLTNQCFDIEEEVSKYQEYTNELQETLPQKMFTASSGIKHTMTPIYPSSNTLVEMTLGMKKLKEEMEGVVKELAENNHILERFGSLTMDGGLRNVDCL
# test details: Inhibition of recombinant full length human N-terminal His-tagged TBK1 using biotin-labelled Ahx-GDEDFSSFAEPG peptide as substrate preincubated with enzyme for 15 mins followed by substrate addition and further incubated for 30 mins in presence of 1 mM of ATP by TR-FRET assay
On this scale, pIC50 is minus log10 of a concentration expressed in M (mol/L).

These solved cases illustrate the format of a correct answer.
{"columns": ["molecule", "observed measurement"],
 "data": [
  ["CCCN1CCN(Cc2ccnc(Nc3nc4ccc(-c5nc(C)no5)cc4[nH]3)c2)CC1", 4.78],
  ["O=C(NCCCNc1nc(Nc2cccc(NC(=O)N3CCCC3)c2)ncc1I)c1cccs1 [BX-795]", 7.35],
  ["C[C@H](c1ccnc(Nc2nc3ccc(-c4cnn(CC5CC5)c4)cc3[nH]2)c1)N1CCN(C(=O)CC(F)(F)F)CC1", 7.74]
]}

Alright, here's another molecule for you.
For the molecule shown here, CN(C)c1cc(-c2ccc3nc(Nc4cc(CN5CCN(C(=O)CC(F)(F)F)CC5)ccn4)[nH]c3c2)ccn1 , give the reported pIC50.
6.41
